testName: in vitro
testSettings: human, hek293t cells
Decide using viability at 48 h, 25 µM alone. Strictly below 80%: rule met. Equal to or above 80%: rule not met.

Is the reported viability at 48 h, 25 µM for O=C(CCl)NC1CCN(C(=O)CCc2ccccc2)CC1 strictly below 80%?
rule met

***
Lab note: viability at 48 h, 25 µM threshold 80%. Does this compound come in strictly under it? C=CC(=O)N(CC)CC(=O)N1CC(C)(C)C1c1nccn1C (stereo not drawn)
rule met

Below 80% on viability at 48 h, 25 µM? Entry C=CC(=O)NCc1nc2cc(F)ccc2o1
rule not met

In the record for CC(NC(=O)C(C#N)=Cc1ccc(-c2ccccc2)cc1)c1ccccc1 (stereo not drawn) , is viability at 48 h, 25 µM less than 80%?
rule met

hey, is viability at 48 h, 25 µM for O=C(CCl)Nc1c(Cl)cc(Cl)cc1Cl lower than 80% or not?
rule not met
